TARGET ENTITY: Fibroblast growth factor 22 (Homo sapiens) (UniProt Q9HCT0)
Sequence (Q9HCT0 whole entry, looked up): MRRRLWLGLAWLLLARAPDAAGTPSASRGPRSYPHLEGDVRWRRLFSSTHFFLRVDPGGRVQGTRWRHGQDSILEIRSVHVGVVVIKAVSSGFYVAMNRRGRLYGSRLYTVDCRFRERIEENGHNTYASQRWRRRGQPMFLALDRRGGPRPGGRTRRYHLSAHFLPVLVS
ASSAY INFO: binders of human FGF22 protein, dose response, FGF22 synaptogenesis inhibitor project, biophysical, thermal shift, cherry-pick (AID 687022); further: reference of the scale not given here
APPLIED CONDITIONS: recombinant FGF22 thermal shift, SYPRO orange melting; series mostly up to 38 µM
Hit rate of the full screen: of about 1,000 compounds, about 360 (36%) were called active. Only a sample is shown.
ENDPOINT LABEL: Tm shift activity

Use these answered entries as a reference point.
O=[N+]([O-])c1cccc(S(=O)(=O)Nc2ccc(S(=O)(=O)Nc3nccs3)cc2)c1 :: inactive
O=C(O)C1CSC(c2ccc3c(c2)OCO3)N1 (centres undefined) :: inactive
C/C(CC(=O)Nc1cccc(Cl)c1Cl)=N\NC(=O)C(=O)NC1CCCCC1 :: inactive
O=[N+]([O-])c1ccc(Cl)c(S(=O)(=O)Nc2ccc(S(=O)(=O)N3CCOCC3)cc2)c1 :: inactive
CCCCn1cnc2c(SCc3cccc(F)c3)nc(N)nc21 :: inactive

Qu. Would you mind telling me what Tm shift activity value was observed for CCOC(=O)[C@]12CCCC=C1N(Cc1ccccc1)C(=O)[C@H](CC(=O)NCC1CCCCC1)C2 ?
Ans. inactive

Qu. So what's the measured Tm shift activity for this one? COc1ccccc1C(=O)N1C[C@H]2[C@@H](c3ccccc31)[C@H](CO)N2C(=O)C1CCCCC1
Ans. inactive

Qu. For O=C(C[C@H]1C[C@@H]2c3cc(NC(=O)NC4CCCC4)ccc3O[C@@H]2[C@H](CO)O1)NCc1ccc2c(c1)OCO2 , what is its reported Tm shift activity?
Ans. inactive

Qu. Quick one: Tm shift activity for N#CCSc1n[nH]c2nc3c(c(=O)n12)C1(CCCCC1)Cc1ccccc1-3 ?
Ans. inactive
